- System: Amaranthus retroflexus (AMARE)
- method notes: Example B1 herbicidal action, post-emergence, 96-cell seed trays, climatic chamber
- Assay type: in vivo
- condition summary: Application post-emergence, 1000 mg/l spray equivalent to 1000 g/ha, evaluated after 9 days
Listing of recorded damage to plant, Amaranthus retroflexus (AMARE) by entry.
Lab note: jot the number down without any unit.

Study these solved cases before continuing.
Return reported damage to plant, Amaranthus retroflexus (AMARE); argument: C=CCn1c(=O)c(-c2c(F)ccc(F)c2Cl)c(OC(C)=O)c2nccnc21
7

Return reported damage to plant, Amaranthus retroflexus (AMARE); argument: Cn1c(=O)c(-c2c(Cl)cc(C(F)(F)F)cc2Cl)c(OC(=O)C(C)(C)C)c2nccnc21
5

Return reported damage to plant, Amaranthus retroflexus (AMARE); argument: Cc1cc(C(=O)Oc2c(-c3c(F)ccc(F)c3Cl)c(=O)n(C)c3nccnc23)c(C)o1
4

Return reported damage to plant, Amaranthus retroflexus (AMARE); argument: O=c1[nH]c2nccnc2c(O)c1-c1cccc(Cl)c1Cl
5

Return reported damage to plant, Amaranthus retroflexus (AMARE); argument: CCn1c(=O)c(-c2c(F)ccc(C)c2Cl)c(OC(=O)C(C)C)c2nccnc21
2

Return reported damage to plant, Amaranthus retroflexus (AMARE); argument: CC(=O)Oc1c(-c2c(Cl)cc(C(F)(F)F)cc2Cl)c(=O)[nH]c2nccnc12
0

Return reported damage to plant, Amaranthus retroflexus (AMARE); argument: Cn1c(=O)c(-c2c(F)ccc(F)c2F)c(OC(=O)C(C)(C)C)c2nccnc21
4

Return reported damage to plant, Amaranthus retroflexus (AMARE); argument: CCn1c(=O)c(-c2c(C)cc(C)cc2C)c(OC(C)=O)c2nccnc21
5

Return reported damage to plant, Amaranthus retroflexus (AMARE); argument: CCn1c(=O)c(-c2ccccc2OC(F)(F)F)c(OC(C)=O)c2nccnc21
7

Return reported damage to plant, Amaranthus retroflexus (AMARE); argument: CC(C)C(=O)Oc1c(-c2ccc(Cl)cc2Cl)c(=O)n(C)c2nccnc12
5

---
Return reported damage to plant, Amaranthus retroflexus (AMARE); argument: O=c1[nH]c2nccnc2c(O)c1-c1c(Cl)cc(C(F)(F)F)cc1Cl
6

Return reported damage to plant, Amaranthus retroflexus (AMARE); argument: CCn1c(=O)c(-c2c(F)ccc(F)c2Cl)c(O)c2nccnc21 [Compound D2]
6

Return reported damage to plant, Amaranthus retroflexus (AMARE); argument: CC(=O)Oc1c(-c2c(C)cc(C)cc2C)c(=O)[nH]c2nccnc12
5

Return reported damage to plant, Amaranthus retroflexus (AMARE); argument: CCn1c(=O)c(-c2c(Cl)ccc(C)c2F)c(OC(=O)C(C)(C)C)c2nccnc21
0

Return reported damage to plant, Amaranthus retroflexus (AMARE); argument: CCn1c(=O)c(-c2ccc(F)cc2Cl)c(OC(=O)C(C)C)c2nccnc21
0

Return reported damage to plant, Amaranthus retroflexus (AMARE); argument: Cn1c(=O)c(-c2ccccc2OC(F)(F)F)c(OC(=O)C(C)(C)C)c2nccnc21
0

Return reported damage to plant, Amaranthus retroflexus (AMARE); argument: Cn1c(=O)c(-c2c(F)ccc(F)c2Cl)c(OC(=O)c2ccc([N+](=O)[O-])cc2)c2nccnc21
7

###

- Test system: Nasturtium officinale (NAAOF)
- method notes: Example B1 herbicidal action, post-emergence, 96-cell seed trays, climatic chamber
- Type: in vivo
- Design: scale not given here
- condition summary: Application post-emergence, 1000 mg/l spray equivalent to 1000 g/ha, evaluated after 9 days (100=total damage to plant, 0=no damage to plant)
property label: damage to plant, Nasturtium officinale (NAAOF)
Lab note: jot the number down without any unit.

Study these solved cases before continuing.
Return reported damage to plant, Nasturtium officinale (NAAOF); argument: Cc1noc(C)c1C(=O)Oc1c(-c2c(F)ccc(F)c2Cl)c(=O)n(C)c2nccnc12
6

Return reported damage to plant, Nasturtium officinale (NAAOF); argument: CC(C)C(=O)Oc1c(-c2cc(Cl)cc(Cl)c2Cl)c(=O)n(C)c2nccnc12
5

Return reported damage to plant, Nasturtium officinale (NAAOF); argument: O=c1[nH]c2nccnc2c(O)c1-c1cccc(Cl)c1Cl
2

Next:
Return reported damage to plant, Nasturtium officinale (NAAOF); argument: CC(=O)Oc1c(-c2ccc(Cl)cc2Cl)c(=O)[nH]c2nccnc12
0

###

Listing of recorded damage to plant, Nasturtium officinale (NAAOF) by entry.
- System: Nasturtium officinale (NAAOF)
- method notes: Example B1 herbicidal action, post-emergence, 96-cell seed trays, climatic chamber
- Assay type: in vivo
- Parameters: scale not given here
- condition summary: Application post-emergence, 1000 mg/l spray equivalent to 1000 g/ha, evaluated after 9 days (100=total damage to plant, 0=no damage to plant)

Study these solved cases before continuing.
Return reported damage to plant, Nasturtium officinale (NAAOF); argument: CCn1c(=O)c(-c2ccccc2Cl)c(OC(C)=O)c2nccnc21
8

Return reported damage to plant, Nasturtium officinale (NAAOF); argument: CCC(=O)Oc1c(-c2ccccc2OC(F)(F)F)c(=O)n(C)c2nccnc12
7

Return reported damage to plant, Nasturtium officinale (NAAOF); argument: CC(C)n1c(=O)c(-c2c(F)ccc(F)c2Cl)c(OC(=O)C(C)(C)C)c2nccnc21
4

Return reported damage to plant, Nasturtium officinale (NAAOF); argument: C=CCCn1c(=O)c(-c2ccccc2OC(F)(F)F)c(OC(C)=O)c2nccnc21
8

Return reported damage to plant, Nasturtium officinale (NAAOF); argument: CCCC(C)C(=O)Oc1c(-c2c(F)ccc(F)c2Cl)c(=O)n(C)c2nccnc12 (stereo not drawn)
7

Next:
Return reported damage to plant, Nasturtium officinale (NAAOF); argument: CCn1c(=O)c(-c2ccc(Cl)c(Cl)c2)c(OC(C)=O)c2nccnc21
8

###

- Test system: Nasturtium officinale (NAAOF)
- method notes: Example B1 herbicidal action, post-emergence, 96-cell seed trays, climatic chamber
- Type: in vivo
- Set-up: scale not given here
- condition summary: Application post-emergence, 1000 mg/l spray equivalent to 1000 g/ha, evaluated after 9 days (100=total damage to plant, 0=no damage to plant)
property label: damage to plant, Nasturtium officinale (NAAOF)
Lab note: jot the number down without any unit.

Return reported damage to plant, Nasturtium officinale (NAAOF); argument: O=c1[nH]c2ncc(Br)nc2c(O)c1-c1c(Cl)cccc1Cl
0

---
Return reported damage to plant, Nasturtium officinale (NAAOF); argument: O=c1[nH]c2nccnc2c(O)c1-c1ccccc1C(F)(F)F
7

Return reported damage to plant, Nasturtium officinale (NAAOF); argument: CCC(=O)Oc1c(-c2c(Cl)cccc2Cl)c(=O)n(CCOC)c2nccnc12
5

###

- Tested on: Nasturtium officinale (NAAOF)
- method notes: Example B1 herbicidal action, post-emergence, 96-cell seed trays, climatic chamber
- Assay type: in vivo
- Set-up: scale not given here
- condition summary: Application post-emergence, 1000 mg/l spray equivalent to 1000 g/ha, evaluated after 9 days (100=total damage to plant, 0=no damage to plant)
Listing of recorded damage to plant, Nasturtium officinale (NAAOF) by entry.

Return reported damage to plant, Nasturtium officinale (NAAOF); argument: CC#CCOC(=O)Oc1c(-c2c(Cl)cccc2Cl)c(=O)n(C)c2nccnc12
6

Return reported damage to plant, Nasturtium officinale (NAAOF); argument: CC(=O)Oc1c(-c2c(Cl)cccc2Cl)c(=O)[nH]c2nccnc12
6

Next:
Return reported damage to plant, Nasturtium officinale (NAAOF); argument: Cn1c(=O)c(-c2c(F)ccc(F)c2Cl)c(OC(=O)c2ccco2)c2nccnc21
6

###

- System: Setaria faberi (SETFA)
- method notes: Example B2 herbicidal action, post-emergence, pots in glasshouse
- Type: in vivo
- condition summary: Application post-emergence, evaluated after 13 days (100=total damage to plant; 0=no damage to plant)
Listing of recorded damage to plant, Setaria faberi (SETFA) by entry.
Lab note: jot the number down without any unit.

Study these solved cases before continuing.
Return reported damage to plant, Setaria faberi (SETFA); argument: Cn1c(=O)c(-c2ccccc2OC(F)F)c(OC(=O)C(C)(C)C)c2nccnc21
2

Return reported damage to plant, Setaria faberi (SETFA); argument: CC(C)C(=O)Oc1c(-c2c(F)ccc(Br)c2Cl)c(=O)n(C)c2nccnc12
2

Return reported damage to plant, Setaria faberi (SETFA); argument: O=c1[nH]c2nccnc2c(O)c1-c1c(F)ccc(Br)c1Cl
9

Return reported damage to plant, Setaria faberi (SETFA); argument: CC(C)(C)C(=O)Oc1c(-c2c(Cl)cc(OC(F)(F)F)cc2Cl)c(=O)[nH]c2nccnc12
8

---
Return reported damage to plant, Setaria faberi (SETFA); argument: CC(C)(C)C(=O)Oc1c(-c2ccccc2OC(F)F)c(=O)[nH]c2nccnc12
4

Return reported damage to plant, Setaria faberi (SETFA); argument: CCn1c(=O)c(-c2ccccc2OC(F)F)c(OC(=O)C(C)C)c2nccnc21
2

Return reported damage to plant, Setaria faberi (SETFA); argument: Cc1ccc(C)c(-c2c(OC(=O)C(C)(C)C)c3nccnc3n(C)c2=O)c1
2

Return reported damage to plant, Setaria faberi (SETFA); argument: CCn1c(=O)c(-c2cc(F)c(Cl)cc2Cl)c(OC(=O)C(C)(C)C)c2nccnc21
1

Return reported damage to plant, Setaria faberi (SETFA); argument: CC(C)(C)C(=O)Oc1c(-c2c(F)ccc(Br)c2Cl)c(=O)[nH]c2nccnc12
7
